# Format: in vivo, mice
# assay_conditions: testes
reported_endpoint: Detection in the testes

{"cpd_smiles": "COc1ccc(-c2oc3c(OC)c(OC)c(OC)c(OC)c3c(=O)c2OC)cc1OC", "Detection in the testes": "not detected"}
{"cpd_smiles": "COc1ccc(-c2cc(=O)c3cc(OC)c(OC)c(OC)c3o2)cc1OC", "Detection in the testes": "detected"}
{"cpd_smiles": "COc1ccc(-c2cc(=O)c3c(OC)c(OC)c(OC)c(OC)c3o2)cc1OC", "Detection in the testes": "not detected"}
{"cpd_smiles": "COc1ccc(-c2cc(=O)c3c(O)c(OC)c(OC)c(OC)c3o2)cc1OC", "Detection in the testes": "detected"}

Now for another entry.
[Q] Need Detection in the testes, item "COc1ccc(-c2cc(=O)c3c(OC)c(OC)c(OC)c(OC)c3o2)cc1"
[A] not detected

---

# Type: in vivo, mice
# assay_conditions: brain; oral administration
reported_endpoint: Detection in the brain

Would you please look over these solved cases?
{"cpd_smiles": "COc1ccc(-c2cc(=O)c3c(OC)c(OC)c(OC)c(OC)c3o2)cc1", "Detection in the brain": "found"}
{"cpd_smiles": "COc1ccc(-c2oc3c(OC)c(OC)cc(O)c3c(=O)c2OC)cc1OC", "Detection in the brain": "not detected"}
{"cpd_smiles": "COc1ccc(-c2oc3c(OC)c(OC)c(OC)c(O)c3c(=O)c2OC)cc1OC", "Detection in the brain": "not detected"}
{"cpd_smiles": "COc1ccc(-c2cc(=O)c3c(OC)c(OC)c(OC)cc3o2)cc1OC", "Detection in the brain": "found"}

[Q] What value of measured Detection in the brain is listed for "COc1ccc(-c2cc(=O)c3cc(OC)c(OC)c(OC)c3o2)cc1OC" ?
[A] found

[Q] Next up: "COc1ccc(-c2cc(=O)c3c(OC)c(OC)c(OC)c(OC)c3o2)cc1OC"
[A] found

[Q] Could you do the same for "COc1ccc(-c2oc3c(OC)c(OC)c(OC)c(OC)c3c(=O)c2OC)cc1OC" , please?
[A] found

[Q] Same question for "COc1ccc(-c2cc(=O)c3c(O)c(OC)c(OC)c(OC)c3o2)cc1OC" please.
[A] not detected

These entries and their values trace back to paper PMC12519076.
